Where a name gives a salt, the structure may show the parent alone.
Parameter: melting point

Example compounds with recorded melting point:
CCCCN1Cc2ccccc2N=C1SCC1=CSC2=NC(Cc3ccccc3)CN12 (centres unmarked) (as salt: hydrochloride) [Example 93, dihydrochloride] = 40 to 44 °C
c1ccc2c(c1)CN=C(SCCN1CCCC1)N2 (as salt: hydrochloride) [Example 77, dihydrochloride] = 195 to 203 °C
Cl.c1ccc(CC2CN=C(SCc3cn4cccnc4n3)N2)cc1 (centres unmarked) [Example 51] = 100 to 115 °C
CN1CCCC1CSC1=NCC(Cc2ccccc2)N1 (centres unmarked) (as salt: hydrochloride) [Example 53, dihydrochloride] = 70 to 80 °C
C1=C(CSC2=NCc3ccccc3N2)N2CC(CCc3ccccc3)N=C2S1 (centres unmarked) (as salt: hydrochloride) [Example 126, dihydrochloride] = 136 to 142 °C

Per the record, c1ccc(C2CCCN2CCSC2=NCc3ccccc3N2)cc1 (centres unmarked) (as salt: hydrochloride) [Example 128, dihydrochloride] has melting point of 94 to 108 °C

Per the record, C1=C(CSC2=NCc3ccccc3N2)N2CC(Cc3cccs3)N=C2S1 (centres unmarked) (as salt: hydrochloride) [Example 63, dihydrochloride] has melting point of 215 to 220 °C

Per the record, C1=C(CSC2=NCCc3ccccc3N2)N2Cc3ccccc3CN=C2S1 (as salt: hydrochloride) [Example 25, dihydrochloride] has melting point of > 250 °C

Per the record, C1=C(CSC2=NCc3ccccc3N2)N2CC(c3ccccc3)N=C2S1 (centres unmarked) (as salt: hydrochloride) [Example 120, dihydrochloride] has melting point of 185 to 190 °C

Per the record, CC1(C)N=C(SCC2=CSC3=NCc4ccccc4CN23)Nc2ccccc21 (as salt: hydrochloride) [Example 21, dihydrochloride] has melting point of > 250 °C

Per the record, Cl.c1ccc2c(c1)CN=C(SCCN1CCc3ccccc31)N2 [Example 115] has melting point of 82 to 88 °C

* * *

Structures can show the parent of a compound that is named as a salt.
Known melting point of a selection of molecules

CCCCN1CCN=C1SCC1=CSC2=NCc3ccccc3CN12 (as salt: hydrochloride) [Example 37, dihydrochloride] = 206 to 212 °C
C1=C(CSC2=NCC(C3CCCCC3)N2)N2Cc3ccccc3CN=C2S1 (stereo not drawn) (as salt: hydrochloride) [Example 26, dihydrochloride] = 174 to 180 °C
C1=C(CSC2=NCc3cccnc3N2)N2Cc3ccccc3CN=C2S1.Cl.Cl.Cl = 194 to 203 °C
C1=C(CSC2=Nc3ccccc3C(c3ccccc3)N2)N2Cc3ccccc3CN=C2S1 (stereo not drawn) (as salt: hydrochloride) [Example 27, dihydrochloride] = 203 to 210 °C
C1=C(CSC2=NCc3ccccc3N2)N2CC(C3CCCCC3)N=C2S1 (stereo not drawn) (as salt: hydrochloride) [Example 15, dihydrochloride] = 235 to 242 °C

Shift focus to the following entry.
Per the record, C1=C(CSC2=NCC(Cc3ccccc3)N2)N2Cc3ccccc3N=C2S1 (stereo not drawn) (as salt: hydrochloride) [Example 33, dihydrochloride] has melting point of > 250 °C

* * *

Where a name gives a salt, the structure may show the parent alone.
Known melting point of a selection of molecules

Example molecules with recorded melting point:
CC1(C)N=C(SCC2=CSC3=NC(Cc4ccccc4)CN23)Nc2ccccc21 (stereo not shown) (as salt: hydrochloride) [Example 87, dihydrochloride] = 50 to 52 °C
Fc1cccc2c1CN=C(SCC1=CSC3=NCc4ccccc4CN13)N2 (as salt: hydrochloride) [Example 23, dihydrochloride] = > 240 °C
CC1(C)CN2C(CSC3=NCc4ccccc4CN3)=CSC2=N1 (as salt: hydrochloride) [Example 7, dihydrochloride] = 127 to 134 °C
C1=C(CSC2=NCc3ccccc3N2)N2Cc3ccccc3N=C2S1 (as salt: hydrochloride) [Example 12, dihydrochloride] = > 250 °C
C1=C(CSC2=NCCc3ccccc3N2)N2CC(Cc3ccccc3)N=C2S1 (stereo not shown) (as salt: hydrochloride) [Example 88, dihydrochloride] = 50 to 53 °C

Per the record, Cl.c1ccc2c(c1)CN=C(SCCCN1CCCC1)N2 has melting point of 178 to 182 °C

Per the record, C1=C(CSC2=NCc3ccccc3N2)N2C[C@H](Cc3c[nH]c4ccccc34)N=C2S1 (as salt: hydrochloride) [Example 109, dihydrochloride] has melting point of 180 to 190 °C

Per the record, COc1cc2nc3n(c2cc1OC)C(O)(CSC1=NCc2ccccc2N1)CS3.Cl (stereo not shown) has melting point of 235 to 240 °C

Per the record, COc1ccc(CC2(C)CN=C(SCC3=CSC4=NCc5ccccc5CN34)N2)cc1 (stereo not shown) (as salt: hydrochloride) [Example 34, dihydrochloride] has melting point of 173 to 180 °C

Per the record, CCCCN1C(SCC2=CSC3=NC(Cc4ccccc4)CN23)=NCc2ccccc21 (stereo not shown) (as salt: hydrochloride) [Example 99, dihydrochloride] has melting point of 50 to 58 °C

Per the record, C1=C(CSC2=N[C@@H]3CCCC[C@H]3N2)N2Cc3ccccc3N=C2S1 (as salt: hydrochloride) [Example 32, dihydrochloride] has melting point of > 250 °C
